# tgt: T1, Human ANGPTL4(26-406)-FLAG-His6-Avi (human, UniProt Q9BY76 24-406, biotin on the C-terminal Avi tag in the biotinylated preparations (immobilised form in SET, ELISA and Octet))
# T1 sequence: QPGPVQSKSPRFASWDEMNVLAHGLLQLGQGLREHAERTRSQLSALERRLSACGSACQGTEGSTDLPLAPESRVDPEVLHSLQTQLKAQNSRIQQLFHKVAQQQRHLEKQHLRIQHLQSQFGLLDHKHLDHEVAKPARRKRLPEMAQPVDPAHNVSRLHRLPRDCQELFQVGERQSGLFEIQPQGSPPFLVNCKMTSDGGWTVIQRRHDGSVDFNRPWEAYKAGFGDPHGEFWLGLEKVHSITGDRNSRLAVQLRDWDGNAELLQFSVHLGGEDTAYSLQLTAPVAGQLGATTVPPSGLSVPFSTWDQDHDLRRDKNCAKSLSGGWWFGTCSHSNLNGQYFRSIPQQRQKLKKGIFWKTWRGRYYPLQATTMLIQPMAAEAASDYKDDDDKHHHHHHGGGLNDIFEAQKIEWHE
# assayOverview: cell-based or functional assay
attributeMeasured: Reversal of human ANGPTL4 inhibition of human LPL EC50 (nM)
Hi! Could you send only the number? It should be in nM, unit omitted.

Worked examples follow.
{"binder": "MOR022761 (antibody, human IgG1, lambda, V domains shown, human IgG1) VH: QVQLVQSGAEVKKPGSSVKVSCKASGGTFQSYAISWVRQAPGQGLEWMGGIIPLFGFANYAQKFQGRVTITADESTSTAYMELSSLRSEDTAVYYCARESYDPYAFDVWGQGTLVTVSS VL: SYELTQPLSVSVALGQTARITCSGDNLGKYSASWYQQKPGQAPVLVIHQDNNRPSGIPERFSGSNSGNTATLTISRAQAGDEADYYCASRAHSMHVVFGGGTKLTVLG", "resultValue": 11}
{"binder": "MOR022764 (antibody, human IgG1, lambda, V domains shown, human IgG1) VH: EVQLVQSGAEVKKPGESLKISCKGSGYSFSTYWISWVRQMPGKGLEWMGIIDPSQSDTRYSPSFQGQVTISADKSISTAYLQWSSLKASDTAMYYCARVYGYVYMDVWGQGTLVTVSS VL: SYELTQPLSVSVALGQTARITCSGDNLGKKYAYWYQQKPGQAPVLVIYDKTKRPSGIPERFSGSNSGNTATLTISRAQAGDEADYYCASYDWYSSSYVFGGGTKLTVLG", "resultValue": 3}
{"binder": "MOR022767 (antibody, human IgG1, kappa, V domains shown, human IgG1) VH: EVQLLESGGGLVQPGGSLRLSCAASGFTFSSYYLHWVRQAPGKGLEWVSYISGEGSSTYYADSVKGRFTISRDNSKNTLYLQMNSLRAEDTAVYYCARERSYAHDHWGQGTLVTVSS VL: DIQMTQSPSSLSASVGDRVTITCRASQDIYIDLNWYQQKPGKAPKLLIYAASKLQSGVPSRFSGSGSGTDFTLTISSLQPEDFATYYCQQGYFLPQTFGQGTKVEIKR", "resultValue": 2}

Reversal of human ANGPTL4 inhibition of human LPL EC50 recorded for this binder, MOR022771 (antibody, human IgG1, kappa, V domains shown, human IgG1) VH: EVQLLESGGGLVQPGGSLRLSCAASGFTFSSYWMHWVRQAPGKGLEWVSGISYSGSSTNYADSVKGRFTISRDNSKNTLYLQMNSLRAEDTAVYYCARDSYIYDLHWGFDNWGQGTLVTVSS VL: DIQMTQSPSSLSASVGDRVTITCRASQDISSYLNWYQQKPGKAPKLLIYAASRLQSGVPSRFSGSGSGTDFTLTISSLQPEDFATYYCQQSYTHPYTFGQGTKVEIKR , is 4

Origin of measurements: patent US20160108110A1
